# Test system: Sonic hedgehog protein (Shh)
# experimental details: small-molecule binders of Shh protein, primary screen, biochemical, small-molecule microarray, 635/667 nm fluorescence (AID 1151);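 note: Shh protein binding to compounds spotted on small-molecule microarray slides; score combines spot fluorescence intensity with signal-to-noise across triplicate slides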
# applied conditions: small-molecule microarray binding, 635 nm fluorescence; higher = more signal
outcome measure: composite z-score
Lab note: record just the number, no unit beside it.

Some solved entries appear below for comparison.
Hello, please tell me recorded composite z-score for this one: O=C1O[C@H](c2ccccc2)[C@H](c2ccccc2)N2[C@H]1[C@@H](C(=O)N1CCCCCCC1)[C@]1(C(=O)Nc3ccc(C#CC4(O)CCCCCC4)cc31)[C@H]2c1ccc(O)cc1
1.45

Supply measured composite z-score of COCCOC(=O)N1C(=O)[C@@]2(c3cc(C#CC4=CCCCC4)ccc31)[C@H](c1ccc(O)cc1)N1[C@H](c3ccccc3)[C@H](c3ccccc3)OC(=O)[C@H]1[C@@H]2C(=O)NC[C@H](O)c1ccccc1 in your reply.
1.27

Tell me its composite z-score given O=C1O[C@H](c2ccccc2)[C@H](c2ccccc2)N2[C@H]1[C@@H](C(=O)O)[C@]1(C(=O)Nc3ccc(C#CC4(O)CCCCCC4)cc31)[C@H]2c1ccc(O)cc1 as the entry.
-0.335

Consider the compound C=CC[C@H](OC(=O)Nc1ccc(SC)cc1)c1ccc(OCCO)cc1 . State its measured composite z-score.
1.68

Return the recorded composite z-score value; entry: CC(C)OC(=O)CC(=O)CC(O)c1ccc([N+](=O)[O-])cc1 (configuration not stated)
-0.514

# return recorded composite z-score for input C=C[C@@H](C)[C@@H](OC(=O)Nc1ccc(SC)cc1)c1ccc(OCCO)cc1
0.487

With those in mind, consider the next compound.
Supply composite z-score value. Item: CN(C)CCCCNC(=O)[C@H]1C[C@H]2C(=O)N[C@@H](CCCC[N+](C)(C)C)C(=O)N2[C@H]1c1ccc(O)cc1
0.719

These entries and their values trace back to PubChem BioAssay.
